target: T1, PD-1 on 293T-PD-1 cells (UniProt Q15116 25-288, limits assumed); assay: FACS on 293T-PD-1 cells, PE goat anti-mouse detection
T1 construct: whole, on cells; the antibodies are anti-human PD-1
T1 sequence (Q15116 25-288 limits assumed): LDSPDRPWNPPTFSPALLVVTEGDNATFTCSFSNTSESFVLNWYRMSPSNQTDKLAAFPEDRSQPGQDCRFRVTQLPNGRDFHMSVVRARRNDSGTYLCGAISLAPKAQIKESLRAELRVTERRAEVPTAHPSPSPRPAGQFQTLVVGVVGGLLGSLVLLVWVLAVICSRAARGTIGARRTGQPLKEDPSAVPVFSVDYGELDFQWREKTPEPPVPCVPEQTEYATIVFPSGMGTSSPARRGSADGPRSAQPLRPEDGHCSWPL
Reported values of EC50 for individual entries
Could you give me the number in µg/mL? Just the number is fine.

Recorded EC50, per entry:
8D4 (antibody, V domains shown, Mouse monoclonal antibody purified from hybridoma supernatant by Protein A; also called 鼠源PD-1单克隆抗体8D4; PD-1杂交瘤抗体8D4) VH: EVQLQQSGTVLARPGASVKMSCKTSGYTFTNFWMHWVKQRPGQGLDWIGAIFPGNTDTTYNRKFKDKAKLTAVTSASTAYMELSSLTNEDSAVYYCTRNHYGLDYWGQGTSVTVSS VL: DIVLTQSPASLAVSLGQRATISCRASESVSIHGTHLMHWYQQKPGQPPKLLIYIASNLGSGVPARFSGSGSETDFTLNIHPVEEEDAATYFCQQSIEDPWTFGGGTKLEIK | 0.0443
9H8 (antibody, V domains shown, Mouse monoclonal antibody purified from hybridoma supernatant by Protein A; also called 鼠源PD-1单克隆抗体9H8; PD-1杂交瘤抗体9H8) VH: EVKLVESGGGLVQPGGSLKLSCATSGFTFSDYYMYWVRQTPEKRLEWVAQISNGGGNTYYPDTVKGRFTISRDNAKNTLYLQMSRLKSEDTAIYYCSKSYYKYDGWYFDVWGAGTTVTVSS VL: DIVLTQSPASLAVSLGQRATISCRASESVEYSRTSLIQWYQLKPGQPPKLLIYAASYVESGVPDRFSGSGSGTEFSFNIHPVEEDDIAMYFCQQARKVPWTFGGGTNLEIK | 0.0203

Then this binder:
Quick check: EC50 of 5H10 (antibody, V domains shown, Mouse monoclonal antibody purified from hybridoma supernatant by Protein A; also called 鼠源PD-1单克隆抗体5H10; PD-1杂交瘤抗体5H10) VH: EVQLVESGGGLVKPGGSLKLSCAASGFTFSDYGMHWVRQAPEKGLEWVAYISGDSNTIYYADTVKGRFTISRDNAKNTLFLQMTSLRSEDTAMYYCTKRGPYYGYTHYFDYWGQGTTLTVSS VL: SIVMTQTPKFLLVSAGDRVTMTCKASQSVSNDVVWYQQKPGQSPKLLIYYASKRYTGVPDRFTGNGYGTDFTFTISTVQAEDLAVYFCQQDYSSPWTFGGGTKLEIK ? 0.0643
